test system: Streptococcus pneumoniae; assay: Antimicrobial activity against Streptococcus pneumoniae 6 constitutively expressing ermB after 20 hrs by agar dilution method; format: functional; details: Streptococcus pneumoniae, 20 h; read-out: MIC
READOUT: MIC (µg/mL)
Report only the number, with the unit µg/mL understood.

I have this molecule here, "CCOC(=O)[C@H]1[C@H](C)O[C@@H](O[C@H]2[C@H](N(C)C)[C@@H](O)[C@H](O[C@H]3[C@@H](CC=O)C[C@@H](C)[C@@H](O)CN(C)CCC[C@H](C/C=C/c4ccc5ccccc5c4)OC(=O)C[C@@H](OC(=O)CC)[C@@H]3OC)O[C@@H]2C)C[C@@]1(C)O" , and I need its recorded MIC. 32
